assay: Stability of cannabinoid compounds and Vitamin E components in Beverage 2 (AB Red) by LCMSMS; assay type: physicochemical; conditions: stored at 21-25° C., 420 days
OBSERVED_PROPERTY: Stability of Plant-Derived Cannabinoid Compounds in AB Red (µg/mL)
Form entry: value (µg/mL) — number only.

// below: answered molecules
CCCCCc1cc(O)c(C/C=C(\C)CCC=C(C)C)c(O)c1 [CBG, cannabigerol] = 4.51
CCCc1cc(O)c2c(c1)OC(C)(C)[C@@H]1CCC(C)=C[C@@H]21 [THCV, delta-9-tetrahydrocannabivarin] = 3.10

Proceeding to the next molecule to report its Stability of Plant-Derived Cannabinoid Compounds in AB Red.
Look at this molecule and give its reported Stability of Plant-Derived Cannabinoid Compounds in AB Red. CCCCCc1cc2c(c(O)c1C(=O)O)[C@@H]1C=C(C)CC[C@H]1C(C)(C)O2 [D9 THCA, delta-9-tetrahydrocannabinolic acid]
1.26

###

assay: Stability of cannabinoid compounds and Vitamin E components in Beverage 1 (AB White) by LCMSMS; assay type: physicochemical; details: AB White stored at 21-25° C.; 22 days
Known Stability of Plant-Derived Cannabinoid Compounds in AB White, 21-25° C. of a selection of molecules
Form entry: value (µg/mL) — number only.

Look at this molecule and give its reported Stability of Plant-Derived Cannabinoid Compounds in AB White, 21-25° C.. CCCCCc1cc(O)c2c(c1)OC1(C)CCC3C1C2C3(C)C (centres unmarked) [CBL, cannabicyclol]
0.547

Look at this molecule and give its reported Stability of Plant-Derived Cannabinoid Compounds in AB White, 21-25° C.. CCCCCc1cc(O)c2c(c1)OC(C)(C)c1ccc(C)cc1-2 [CBN, cannabinol]
2.69

Look at this molecule and give its reported Stability of Plant-Derived Cannabinoid Compounds in AB White, 21-25° C.. CCCCCc1cc(O)c(C/C=C(\C)CCC=C(C)C)c(O)c1 [CBG, cannabigerol]
4.68

Look at this molecule and give its reported Stability of Plant-Derived Cannabinoid Compounds in AB White, 21-25° C.. CCCCCc1cc(O)c2c(c1)OC(C)(C)[C@@H]1CCC(C)=C[C@@H]21 [D9 THC, delta-9-tetrahydrocannabinol, reference compound]
11.9

Look at this molecule and give its reported Stability of Plant-Derived Cannabinoid Compounds in AB White, 21-25° C.. C=C(C)[C@@H]1CCC(C)=C[C@H]1c1c(O)cc(CCC)cc1O [CBDV, cannabidivarin]
0.148

###

assay: Stability of cannabinoid compounds and Vitamin E components in Beverage 2 (AB Red) by LCMSMS; assay type: physicochemical; conditions: stored at 21-25° C., 480 days
Friendly reminder: Stability of Plant-Derived Cannabinoid Compounds in AB Red below 2 µg/mL is TRUE, at or above is FALSE.

Solved cases (5 shown):
CCCCCc1cc(O)c2c(c1)OC(C)(C)c1ccc(C)cc1-2 = FALSE
C=C(C)[C@@H]1CCC(C)=C[C@H]1c1c(O)cc(CCCCC)c(C(=O)O)c1O = TRUE
CCCCCc1cc(O)c2c(c1)OC(C)(CCC=C(C)C)C=C2 (stereo not drawn) = TRUE
CCCCCc1cc(O)c2c(c1)OC(C)(C)[C@@H]1CCC(C)=C[C@@H]21 [D9 THC, delta-9-tetrahydrocannabinol, reference compound] = FALSE
CCCCCc1cc2c(c(O)c1C(=O)O)[C@@H]1C=C(C)CC[C@H]1C(C)(C)O2 [D9 THCA, delta-9-tetrahydrocannabinolic acid] = TRUE

For CCCCCc1cc(O)c2c(c1)OC1(C)CCC3C1C2C3(C)C (stereo not drawn) , is the recorded Stability of Plant-Derived Cannabinoid Compounds in AB Red below the cut-off of 2 µg/mL?
TRUE

For CCCc1cc(O)c2c(c1)OC(C)(C)[C@@H]1CCC(C)=C[C@@H]21 [THCV, delta-9-tetrahydrocannabivarin] , is the recorded Stability of Plant-Derived Cannabinoid Compounds in AB Red below the cut-off of 2 µg/mL?
FALSE

For C=C(C)[C@@H]1CCC(C)=C[C@H]1c1c(O)cc(CCC)cc1O , is the recorded Stability of Plant-Derived Cannabinoid Compounds in AB Red below the cut-off of 2 µg/mL?
TRUE

For CCCCCc1cc(O)c(C/C=C(\C)CCC=C(C)C)c(O)c1 , is the recorded Stability of Plant-Derived Cannabinoid Compounds in AB Red below the cut-off of 2 µg/mL?
FALSE
